# Test system: CYP3A4
# Test method notes: clinical
# Experimental setup: human, in vivo, po, Cmax, GLSM, midazolam 2 mg single oral dose with RBN-3143 300 mg BID at steady state (day 16), N=12
Property measured: Cmax

[Q] Which Cmax is listed for Cc1ncc2n1-c1ccc(Cl)cc1C(c1ccccc1F)=NC2 [Midazolam, midazolam] ?
[A] 9.11 ng/mL

---

# Test method notes: Food effect (high-fat breakfast) on RBN-3143 pharmacokinetics, cross-over
# Assay type: in vivo, human
# Experimental setup: human, plasma, po, 500 mg, single 500 mg oral dose, fasted, N=13, linear mixed-effects model; read-out: Cmax, GLSM
# Procedure: Analytes were separated by HPLC on a Waters Atlantis T3 analytical column using a gradient mobile phase (mobile phase A: 10% acetonitrile, 90% water, 10 mM ammonium acetate, 0.3% formic acid; mobile phase B: 90% acetonitrile, 10% water, 10 mM ammonium acetate, 0.3% formic acid) run at 0.4 mL/min with initial mobile phase B concentration of 30%.
Property measured: Cmax

[Q] Which Cmax is listed for "CC(=O)N1CCC(COc2cc(F)c3c(=O)[nH]c(CSC4CCOCC4)nc3c2)CC1" ?
[A] 1.55 µg/mL
